Molecular target: T1, human CD40L, membrane-bound on cells (human, UniProt P29965 1-261)
T1 sequence: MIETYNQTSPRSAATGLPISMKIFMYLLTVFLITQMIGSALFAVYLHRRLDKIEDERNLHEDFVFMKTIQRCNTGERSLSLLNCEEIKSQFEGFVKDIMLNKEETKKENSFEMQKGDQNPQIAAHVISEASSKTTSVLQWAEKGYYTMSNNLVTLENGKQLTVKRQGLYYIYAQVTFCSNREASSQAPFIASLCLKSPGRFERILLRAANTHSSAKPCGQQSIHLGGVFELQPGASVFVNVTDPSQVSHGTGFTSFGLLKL
Experiment: cell-based or functional assay
VALUE_KIND: T-B cell MLR EC50 (nM)

BINDER	UOM	T-B cell MLR EC50
BMS2h-116-1320 (other) VL: DIQMTQSPSSLSAYVGDRVTITCRASQPIGPDLLWYQQKPGKAPKLLIYQTSILRSGVPSRFSGSGSETDFTLTISNLQPEDFAKYYCQQYWAFPVTFGQGTKVVIKR	nM	191
BMS2h-116-1313 (other) VL: DIQMTQSPSSLSASVGDRVTITCRASQPIGPDLLWYQQKPGKAPKLLIYQTSILRSGVPSRFSGSGSETDFTLTISNLQPEDFATYYCQQYWAFPVTFGRGTKVVIKR	nM	258
